- system: UniProt:P34972
- Sequence (P34972 whole entry): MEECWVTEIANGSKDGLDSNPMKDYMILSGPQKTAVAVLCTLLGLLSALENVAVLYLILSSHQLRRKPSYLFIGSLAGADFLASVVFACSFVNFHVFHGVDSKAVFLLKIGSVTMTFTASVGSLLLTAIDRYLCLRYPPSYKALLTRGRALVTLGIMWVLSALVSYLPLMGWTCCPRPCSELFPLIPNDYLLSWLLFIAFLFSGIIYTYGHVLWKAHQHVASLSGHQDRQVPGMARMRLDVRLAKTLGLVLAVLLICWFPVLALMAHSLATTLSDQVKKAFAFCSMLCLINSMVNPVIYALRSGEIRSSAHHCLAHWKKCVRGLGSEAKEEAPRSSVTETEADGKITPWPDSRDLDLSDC
assay_metric: IC50 (nM)
Please reply with the bare figure in nM and do not write the unit itself.

Tell me the measured IC50 of Cc1s/c(=N\C(=O)C2C(C)(C)C2(C)C)n(CCCCF)c1C , please. 2.82
